Values from PubChem BioAssay (NCI)

tested on: PC-3 prostate; test: NCI tumour cell line growth inhibition, 48 h

compound	TGI
CCOC(=O)Nc1ccc2nc(-c3cscn3)[nH]c2c1	> 100 µM
OCc1ccc(N(Cc2ccc(F)cc2)Cc2ccc(F)cc2)cc1Cl	22.8 µM
Cn1c(COC(=O)NCCn2ccnc2)nc2c(N3CCOCC3)nc(-c3ccccc3)nc21	2.14 µM
Cc1cccc(N2C(=O)/C(=C/C(Cl)=C/c3ccc([N+](=O)[O-])cc3)SC2=S)c1C	4.93 µM
N#Cc1nc(CCc2nc(C#N)c(N)o2)oc1N	> 10 µM
CN(CCCCCl)P(=O)(OCc1ccc([N+](=O)[O-])o1)OCC1OC(n2ccc(N)nc2=O)C(O)C1O (stereo not given)	43 µM
O=C(Nc1sc2c(c1C(=O)O)CCCC2)c1ccco1	> 50 µM
Cc1ccc(/C(=N/Nc2ccc([N+](=O)[O-])cc2)Sc2cc(Cl)c(C)cc2S(N)(=O)=O)cc1	4.47 µM
CCCCNC(c1ccc(Cl)cc1)C(O)c1ccc(Cl)cc1 (stereo not given)	7.47 µM
CC(=O)CC1(CBr)Nc2ccc([N+](=O)[O-])cc2NC1=O (stereo not given)	> 100 µM

###

tested on: OVCAR-8 ovarian; assay: NCI tumour cell line growth inhibition, 48 h

molecule	relation	TGI (µM)
CC(Nc1ccc(Cl)cc1)c1ccncc1 (stereo not given)	>	100
COc1cccc(-c2cc(C(=O)Nc3ccc(/C=C/c4ccc(OC5CCN(C)CC5)cc4)cc3)ccc2OC)c1	=	4.59
N#Cc1nc(CCc2nc(C#N)c(N)o2)oc1N	>	10
CC(=O)Nc1ccc(C2CC(c3ccc([N+](=O)[O-])cc3)=Nc3ccccc3S2)cc1 (stereo not given)	=	35.4
CN1CCN(C(=O)c2cn(Cc3cncn3Cc3ccc4c(c3)OCO4)cc2-c2cccc3ccccc23)CC1	>	100

###

system: RXF 393 renal; assay: NCI tumour cell line growth inhibition, 48 h
Measured TGI, listed per entry for reference.

compound	readout_units	relation	TGI
C=C1c2nc3ccccc3n2C=C(c2ccc(C)cc2)N1c1ccc(OC)cc1	µM	>	100
O=C1c2cc3c(cc2-c2c1c1cc(F)c(F)cc1c(=O)n2CCCn1ccnc1)OCO3	µM	=	0.169
COc1cc2c(cc1OCCNC(=O)/C=C1\C[C@H]3C=Nc4cc(OCc5ccccc5)c(OC)cc4C(=O)N3C1)N=C[C@@H]1CCCN1C2=O	µM	=	4.98
CN1CCN(C(=O)c2cn(Cc3cncn3Cc3ccc4c(c3)OCO4)cc2-c2cccc3ccccc23)CC1	µM	>	100
CCOC(=O)c1c(N)sc2c1C(C(=O)OCC)CCCC2 (stereo not drawn)	µM	>	100
Oc1ccc(C(O)C2CCCCN2)cc1O (stereo not drawn)	µM	>	100
O=P1(N(CCCl)CCCl)Oc2ccc(Cl)cc2C(C(Cl)(Cl)Cl)c2cc(Cl)ccc2O1 (stereo not drawn)	µM	=	29.3
O=C(Nc1ccccc1)N1CCN(C(=O)Nc2ccccc2)C1=S	µM	=	43.6
CCC1(O)CC(CCN(Cc2ccccc2)C(=O)OCc2ccccc2)C(OCc2ccccc2)C1O (stereo not drawn)	µM	=	41.9
Cc1ccccc1NC(=O)O/N=C(\Cl)C(C)C	µM	=	25.1
COc1cc2c(/C=C3\C(=O)Nc4ccccc43)c[nH]c2cc1C	µM	=	0.71
O=C1NC(O)n2c(=O)[nH]c(=O)n21 (stereo not drawn)	µM	>	100
COc1ccc(CCNC(=O)Cc2ccccc2CO)cc1OC	µM	>	100
C/C(=N/NC(=S)Nc1ccccc1)c1nc2ccc(Cl)cc2[nH]1	µM	=	0.783
CCC[CH2][Sn-]([CH2]CCC)([CH2]CCC)[O]C(=O)C(C)C	µM	=	0.237
O=C1C(=O)c2c(nc3ccc(C(F)(F)F)cn23)-c2ccccc21	µM	=	0.616
CCOc1ccc(NC(=O)/C(CC(=O)c2c[n+](=O)c3ccccc3n2[O-])=N\OCCCc2ccccc2)cc1	µM	>	100
CCCC(=O)O[C@]1(C)CC[C@@H]2[C@H]3[C@@H]1[C@@H]1C[C@@](C)(O)[C@H](OC)CC[C@](C)(OC(=O)[C@@H]2C)[C@H]3O1	µM	=	72.9
Nc1[nH]c(=O)nc2c1ncn2C1OC(CO)C(O)C1O (stereo not drawn)	µM	>	100
Clc1ccccc1C(Nc1cnccn1)Nc1cnccn1	µM	>	100
COc1cc(CCNC2=CC(=O)c3nc[nH]c3C2=O)ccc1O	µM	>	100
CN1CCCC2[C@@H]3CCC4c5nonc5CC[C@]4(C)C3CC[C@@]21C (stereo partly drawn)	µM	>	100
O=C1Nc2ccccc2/C1=C\c1c(Cl)n(-c2ccccc2)c2ccccc12	µM	=	10.9
COC(=N)C1(C#N)NC(c2ccsc2)C(C#N)(C#N)NC1c1ccsc1 (stereo not drawn)	µM	>	100
Clc1ccc2c(c1)N(CCCN1CCCC13CCCCC3)c1ccccc1S2	µM	=	17.6
C=C1C(=O)O[C@@H]2/C=C(/C)[C@@H](OC(C)=O)C/C=C(\C)C(O)[C@@H](OC(=O)/C(C)=C\C)C12 (stereo partly drawn)	µM	=	79.4
CC(Nc1ccc(Cl)cc1)c1ccncc1 (stereo not drawn)	µM	>	100
Cn1c(COC(=O)NCCc2ccccn2)nc2c(N3CCOCC3)nc(Cl)nc21	µM	=	2.45

###

tested on: OVCAR-3 ovarian; experiment: NCI tumour cell line growth inhibition, 48 h
parameter_measured: log10 of TGI (log10 of the value in µM)

compound	log10 of TGI
COP(=O)(OC)OCN(C)CC/C=C(\C)CC/C=C(\C)CCC=C(C)C	1.48
Cc1ccc(/C(=N/Nc2ccc([N+](=O)[O-])cc2)Sc2cc(Cl)c(C)cc2S(N)(=O)=O)cc1	0.42
COC1/C=C/C(C)C(O)CC(O)/C=C/C(C)C(C(C)C(OC)C(C)CCC(=O)C(C)C(C/C=C/N(C)C=O)OC)OC(=O)/C=C/C=C(\C)CC(OC)CC2=CC(=O)O[C@@H](C(C)C(OC)C1)[C@H]2O (stereo not given in full)	-1.97
CCCC(=O)O[C@]1(C)CC[C@@H]2[C@H]3[C@@H]1[C@@H]1C[C@@](C)(O)[C@H](OC)CC[C@](C)(OC(=O)[C@@H]2C)[C@H]3O1	1.60
Cc1cccc(N2C(=O)/C(=C/C(Cl)=C/c3ccc([N+](=O)[O-])cc3)SC2=S)c1C	0.59
CCC1(O)CC(CCN(Cc2ccccc2)C(=O)OCc2ccccc2)C(OCc2ccccc2)C1O (stereo not given)	1.43
C/C(=N/NC(=S)Nc1ccccc1)c1nc2ccc(Cl)cc2[nH]1	0.10
COc1cc(CCNC2=CC(=O)c3nc[nH]c3C2=O)ccc1O	1.48
CC(=O)Nc1ccc(C2CC(c3ccc([N+](=O)[O-])cc3)=Nc3ccccc3S2)cc1 (stereo not given)	1.83
O=C1c2cc3c(cc2-c2c1c1cc(F)c(F)cc1c(=O)n2CCCn1ccnc1)OCO3	0.18
COc1cc(C2CC(c3ccc(Nc4nc(NCCO)nc(NCCO)n4)cc3)=NN2c2cc(Cl)cc(Cl)c2)cc(OC)c1OC (stereo not given)	0.50

###

tested on: RPMI-8226 leukemia; test: NCI tumour cell line growth inhibition, 48 h

molecule	target_system	TGI
CC(=O)[CH-]C(C)=O.CC(=O)[CH-]C(C)=O.[O-]c1ccccc1.[O-]c1ccccc1.[Ti+4]	RPMI-8226 leukemia	> 100 µM
C[s+]1c2ccccc2c2ccccc21	RPMI-8226 leukemia	> 100 µM
Cc1ccc(/C(=N/Nc2ccc([N+](=O)[O-])cc2)Sc2cc(Cl)c(C)cc2S(N)(=O)=O)cc1	RPMI-8226 leukemia	4.27 µM
O=S(=O)(Nc1nc2ccccc2nc1N1CCCCCC1)c1ccccc1	RPMI-8226 leukemia	> 100 µM
COc1cc(CCNC2=CC(=O)c3nc[nH]c3C2=O)ccc1O	RPMI-8226 leukemia	68.7 µM
COc1nc(Cl)nc(N[C@H](C)c2c3ccccc3cc3ccccc23)n1	RPMI-8226 leukemia	21.1 µM
O=C1NC(=NCCc2ccc(Cl)cc2)S/C1=C\c1ccc2ncccc2c1	RPMI-8226 leukemia	> 25 µM
O=C1CC23CCCCCCCCCCC2(C1)CC(=O)C3 (stereo not drawn)	RPMI-8226 leukemia	45.4 µM
O=C1c2cccc3cccc(c23)C(=O)N1CCCCCN1CCN(CCN=c2cc3n(-c4ccc(Cl)cc4)c4ccccc4nc-3cc2Nc2ccc(Cl)cc2)CC1	RPMI-8226 leukemia	16.9 µM
CCCCNC(c1ccc(Cl)cc1)C(O)c1ccc(Cl)cc1 (stereo not drawn)	RPMI-8226 leukemia	5.51 µM
CN(C)CCC(=O)Nc1ccc(-n2cc(-c3cccc(NC(=S)Nc4cccc(-c5cn(-c6ccc(NC(=O)CCN(C)C)cc6)nn5)c4)c3)nn2)cc1	RPMI-8226 leukemia	> 100 µM
CCc1nc(N)c2nc(-c3cccs3)oc2n1	RPMI-8226 leukemia	> 100 µM
O=c1[nH]c(=O)n(COC(CO)CO)cc1-c1ccccc1	RPMI-8226 leukemia	> 100 µM
CN1CCN(C(=O)c2cn(Cc3cncn3Cc3ccc4c(c3)OCO4)cc2-c2cccc3ccccc23)CC1	RPMI-8226 leukemia	38.7 µM
NCCO/C=C/C(N)C(=O)O (stereo not drawn)	RPMI-8226 leukemia	> 100 µM
CC(=O)CC1(CBr)Nc2ccc([N+](=O)[O-])cc2NC1=O (stereo not drawn)	RPMI-8226 leukemia	> 100 µM
Cc1ccc(C2=CC(=O)c3ccccc3C2=O)n1-c1ccccc1	RPMI-8226 leukemia	> 100 µM
CCOc1c(Br)cc(Br)cc1C=C(C#N)C#N	RPMI-8226 leukemia	> 10 µM
